Measured values drawn from patent US20230235012A1 for this set.

biological target: T1, human CD28, full-length, expressed on transfected Expi293 cells (human, UniProt P10747 19-220); assay: flow cytometry, 100 nM, Expi293 cells with human CD28
T1 construct: whole, on cells
observed-property: MFI (MFI)
Numeric only. Scale: MFI

Query: Please list MFI recorded for the binder variant ICOSL IgV-Fc fusion N52R/N57L/Q100A (Fc fusion) DTQEKEVRAMVGSDVELSCACPEGSRFDLNDVYVYWQTSESKTVVTYHIPQRSSLELVDSRYRNRALMSPAGMLRGDFSLRLFNVTPQDEQKFHCLVLSASLGFQEVLSVEVTLHVAANFSVGSGGGGSEPKSSDKTHTCPPCPAPEAEGAPSVFLFPPKPKDTLMISRTPEVTCVVVDVSHEDPEVKFNWYVDGVEVHNAKTKPREEQYNSTYRVVSVLTVLHQDWLNGKEYKCKVSNKALPAPIEKTISKAKGQPREPQVYTLPPSREEMTKNQVSLTCLVKGFYPSDIAVEWESNGQPENNYKTTPPVLDSDGSFFLYSKLTVDKSRWQQGNVFSCSVMHEALHNHYTQKSLSLSPG
Response: 119000
